# TEST PROTOCOL: Glucose lowering effect in KKAy mouse model
# Type: in vivo
# CONDITION PARAMETERS: male, mouse, serum; KKA^y mice, 53 mg/kg BID oral gavage 14 days, 4 hours after the last administration, average ± S.E.M.; read-out: Serum level of the compound
MEASURED PARAMETER: concentration at 4 h (ng/mL)
Form entry: value (ng/mL) — number only.

[ask] // concentration at 4 h lookup, key: O=C(O)CC/C=C\C[C@@H]1CO[C@H](c2ccccc2Cl)O[C@@H]1c1ccccc1O (single isomer, unassigned)
[reply] 161
